Ref: patent US20230123334A1

# Test system: HEK293 cells
# Method: Preliminary screening as DNA vectors, GFP transfection of HEK293 cells
# Type: cell-based
# Condition summary: amino lipid/DOPE liposome with 75 ng plasmid DNA (psin-EGFP-IRES-Puro); number of GFP-expressing cells divided by total nuclei (Hoechst)
Please note: Absolute DNA transfection efficiency in HEK293 cells exactly at 10% is class 0. Only values below 10% get class 1.

1) CCCCCCCCCCCCNc1nc(NCCCN(C)C)nc(SCCCCCCCCC)n1 [S9N12 D6]
class 0
2) CCCCCCCCCCCSc1nc(NCCN2CCN(C)CC2)nc(SCCCCCCCC)n1 [S8S11 D5]
class 0
3) CCCCCCCCCCCCCCCSc1nc(NCCCCCCCCCCCC)nc(NCCN(CC)CC)n1 [S15N12 D7]
class 1
4) CCCCCCCCCCCNc1nc(NCCN(C)C)nc(SCCCCCCCCCCC)n1 [S11N11 D1]
class 0
5) CCCCCCCCCCCCCCCCNc1nc(NCCN(CC)CC)nc(SCCCCCCCCC)n1 [S9N16 D7]
class 1
6) CCCCCCCCCCCCN(CCCCCCCCCCCC)c1nc(NCCCN2CCN(C)CC2)nc(SCCCCCCCCC)n1 [S9^2N12 D9]
class 1
7) CCCCCCCCCCCCCCCCNc1nc(NCCN(C)C)nc(SCCCCCCCCCCCCCCCC)n1 [S16N16 D1]
class 1
8) CCCCCCCCCCCCN(CCCCCCCCCCCC)c1nc(NCCN2CCN(C)CC2)nc(SCCCCCCCC)n1 [S8^2N12 D5]
class 1
